The reported measurements were obtained from ChEMBL document CHEMBL1140893.

Species on record: Mus musculus
test: Reduction in peroxynitrite-induced/TPA-promoted number of skin papillomas in Sencar mouse after 20 weeks
Format: functional
Design: scale not given: the % may be the effect or the level left
# Activity values compiled below
Give just the numeric value; % need not be written.

compound	readoutLabel	reportedMeasurement
C[C@@]12CC[C@@H]3[C@@](CC[C@H]4[C@@]3(C)CCC[C@@]4(C)C(=O)O)(CC1=O)C2 [ISOSTEVIOL]	Activity	46.2
C=C1C[C@@]23CC[C@H]4[C@@](C)(CCC[C@@]4(C)C(=O)O[C@@H]4O[C@H](CO)[C@@H](O)[C@H](O)[C@H]4O)[C@@H]2CC[C@]1(O[C@@H]1O[C@H](CO)[C@@H](O)[C@H](O)[C@H]1O[C@@H]1O[C@H](CO)[C@@H](O)[C@H](O)[C@H]1O)C3 [STEVIOSIDE]	Activity	45
COc1cc(/C=C/C(=O)CC(=O)/C=C/c2ccc(O)c(OC)c2)ccc1O [CURCUMIN]	Activity	45.1

Then there is this compound:
Measured Activity, C=C1C[C@@]23CC[C@H]4[C@@](C)(CCC[C@@]4(C)C(=O)O)[C@@H]2CC[C@]1(O)C3 [STEVIOL] : 44.4

* * *

Quick list: viability at 100 mol ratio per entry.
test: Cytotoxicity against human Raji cells assessed as cell viability at 100 mol ratio by trypan blue staining
Assay type: cell-based
appliedConditions: read-out: Activity

Consider the reported viability at 100 mol ratio for these molecules:
molecule	viability at 100 mol ratio
C=C1C[C@@]23CC[C@H]4[C@@](C)(CCC[C@@]4(C)C(=O)O)[C@@H]2CC[C@]1(O)C3 [STEVIOL]	> 80%
C=C1C[C@@]23CC[C@H]4[C@@](C)(CCC[C@@]4(C)C(=O)O[C@@H]4O[C@H](CO)[C@@H](O)[C@H](O)[C@H]4O)[C@@H]2CC[C@]1(O[C@@H]1O[C@H](CO)[C@@H](O)[C@H](O)[C@H]1O)C3 [RUBUSOSIDE]	> 80%

Entry C=C1C[C@@]23CC[C@H]4[C@@](C)(CCC[C@@]4(C)C(=O)O[C@@H]4O[C@H](CO)[C@@H](O)[C@H](O)[C@H]4O)[C@@H]2CC[C@]1(O[C@@H]1O[C@H](CO)[C@@H](O)[C@H](O[C@@H]2O[C@H](CO)[C@@H](O)[C@H](O)[C@H]2O)[C@H]1O[C@@H]1O[C@@H](C)[C@H](O)[C@@H](O)[C@H]1O)C3 [REBAUDIOSIDE C] — recorded viability at 100 mol ratio = > 80%

* * *

Tested on: Raji
test: Inhibition of TPA-induced EBV-early antigen activation in human Raji cells at 500 mol ratio after 48hrs by indirect immunofluorescence technique relative to control
Type: cell-based
Set-up: scale not given: the % may be the effect or the level left
appliedConditions: human gammaherpesvirus 4
readoutLabel: Activity (%)
State just the number; it will be interpreted in %.

compound	Activity [%]
CC1(C)[C@@H](O[C@H]2O[C@H](C(=O)O)[C@@H](O)[C@H](O)[C@H]2O[C@@H]2O[C@H](C(=O)O)[C@@H](O)[C@H](O)[C@H]2O)CC[C@]2(C)[C@H]3C(=O)C=C4[C@@H]5C[C@@](C)(C(=O)O)CC[C@]5(C)CC[C@@]4(C)[C@]3(C)CC[C@@H]12 [GLYCYRRHIZIN]	36.9
C=C1C[C@@]23CC[C@H]4[C@@](C)(CCC[C@@]4(C)C(=O)O[C@@H]4O[C@H](CO)[C@@H](O)[C@H](O)[C@H]4O)[C@@H]2CC[C@]1(O[C@@H]1O[C@H](C)[C@@H](O)[C@H](O)[C@@H]1O[C@@H]1O[C@H](CO)[C@@H](O)[C@H](O)[C@H]1O)C3 [DULCOSIDE A]	40.9

The recorded Activity for C=C1C[C@@]23CC[C@H]4[C@@](C)(CCC[C@@]4(C)C(=O)O[C@@H]4O[C@H](CO)[C@@H](O)[C@H](O)[C@H]4O)[C@@H]2CC[C@]1(O[C@@H]1O[C@H](CO)[C@@H](O)[C@H](O)[C@H]1O)C3 [RUBUSOSIDE] is 44.2

get_value(item= COc1cc(/C=C/C(=O)CC(=O)/C=C/c2ccc(O)c(OC)c2)ccc1O [CURCUMIN] , readout=Activity) returns 22.8

The compound listed as C[C@@]12CC[C@@H]3[C@@](CC[C@H]4[C@@]3(C)CCC[C@@]4(C)C(=O)O)(CC1=O)C2 [ISOSTEVIOL] shows Activity equal to 34.2

Reported Activity ( C=C1C[C@@]23CC[C@H]4[C@@](C)(CCC[C@@]4(C)C(=O)O)[C@@H]2CC[C@]1(O)C3 [STEVIOL] ) = 35.6

# Activity of C=C1C[C@@]23CC[C@H]4[C@@](C)(CCC[C@@]4(C)C(=O)O[C@@H]4O[C@H](CO)[C@@H](O)[C@H](O)[C@H]4O)[C@@H]2CC[C@]1(O[C@@H]1O[C@H](CO)[C@@H](O)[C@H](O)[C@H]1O[C@@H]1O[C@H](CO)[C@@H](O)[C@H](O)[C@H]1O)C3 [STEVIOSIDE] = 36.9
